- protocol summary: ATG_ERE_CIS: Attagene CIS-FACTORIAL HepG2 Assay for Estrogen Response Element (ERE) (AID 2282940)
- study conditions: HepG2 ERE cis-reporter, Attagene RNA transcript; actives raise or lower the signal
The source made the active and inactive calls. The calls were made as follows: active = hit-call score of the fitted dose curve at least 0.9, where 1 is the maximum; inactive = score below 0.9.
Hi! Could you answer with just one of these? active, inactive

Record excerpt, results attached:
| molecule | label |
| --- | --- |
| C1CN2CCN1CC2 | inactive |
| CCCCN(CCCC)C(=S)S | inactive |
| C[C@H]1C(=O)O[C@@H]2CCN3CC=C(COC(=O)[C@](C)(O)[C@]1(C)O)[C@H]23 | inactive |
| CC1(C)[C@H](/C=C2\CCSC2=O)[C@@H]1C(=O)OCc1coc(Cc2ccccc2)c1 | inactive |
| Brc1ccc(Oc2c(Br)cc(Br)cc2Br)c(Br)c1 | inactive |
| CCCCCCCCCCCCCl | inactive |
| CC(C)CP(=S)(S)CC(C)C | inactive |
| O=S(=O)(c1ccc(Cl)cc1)c1cc(Cl)c(Cl)cc1Cl | inactive |
| Fc1cccc(Cl)c1CCl | inactive |
| C#CCO | inactive |

// query Field: outcome | Entry: C=CC(F)(C(F)(F)F)C(F)(F)C(F)(F)F (centres undefined)
// result inactive

// query Each molecule tested received a call. Report the one for Cc1ccccc1OP(=O)(Oc1ccccc1)Oc1ccccc1 .
// result active

// query How did this test come out for Cc1cc(C(C)(C)c2ccc(O)c(C)c2)ccc1O ?
// result active

// query I'd appreciate the recorded outcome for O=C(O)COc1ccc(Cl)cc1 from this test.
// result inactive
